Record form. Attribute: GI50. Fill in for each entry.
- System: A549
- assay: NCI tumour cell line growth inhibition, 48 h
Activity calls are given as the source filed them. No stated cut-off is given here; in the data, active = GI50 up to about 1.1 µM and inactive = higher.

// solved cases for GI50 follow
(Q) Return GI50 (reported value) for this compound: CCOC(=O)c1c(Sc2ccc([N+](=O)[O-])cc2[N+](=O)[O-])nc2c3ccccc3ccn12
(A) > 100 µM (inactive)

(Q) Name the recorded GI50 of the item CCOC(=N)CC(=O)Nc1ccccc1CC in your answer.
(A) > 100 µM (inactive)

(Q) Return GI50 (reported value) for this compound: C=CC1=C(C)/C(=C/C2=NC(=C\c3[nH]c(CC4NC(=O)C(C)/C4=C\C)c(C)c3CCC(=O)O)/C(CC(=O)O)=C2C)NC1=O (stereo not given)
(A) > 100 µM (inactive)

(Q) For the compound CO/N=C\c1ccc2c(c1)Sc1ccccc1O2 , give its reported GI50.
(A) 44.8 µM (inactive)

(Q) Provide one value: measured GI50 of CN1C2(c3ccccc3)c3c(-c4ccccc4)sc(-c4ccccc4)c3C1(c1ccccc1)C1C(=O)N(c3ccccc3)C(=O)C12 (stereo not given)
(A) > 100 µM (inactive)

(Q) Write down GI50 measured for item O=C1/C(=C/c2ccccc2)N=C2Sc3c([nH]cnc3=O)N12
(A) > 100 µM (inactive)

(Q) Retrieve GI50 measured for CSc1nc(C)c(CCOC(C)=O)c(N=P(c2ccccc2)(c2ccccc2)c2ccccc2)n1 and print it.
(A) 5.12 µM (inactive)

(Q) Return GI50 for the following compound: CC1=C(C(=O)Nc2ccc([N+](=O)[O-])cc2)C(c2ccc3c(c2)OCO3)C(C(=O)Nc2ccc([N+](=O)[O-])cc2)=C(C)N1
(A) 24.2 µM (inactive)

Give measured GI50 for every item shown.
1. N#Cc1ccc(/N=C(/NCC(=O)O)Nc2ccc3ccccc3c2)cc1
2. Cc1cc(N)c(C)c2c1[nH]c1ccc(O)cc12

(A)
1. > 10 µM (inactive)
2. > 100 µM (inactive)

* * *

- Test system: SF-268
- assay: NCI tumour cell line growth inhibition, 48 h
Active and inactive are the calls of the source. Rule as the data show it: active = GI50 up to about 1.1 µM and inactive = higher.
Give your call using only these classes: active, inactive

Example results:
(Q) Assay result, entry CCOC(=O)C(=O)Nc1c(N(CC)CC)n2ccccc2nc1=O — outcome?
(A) inactive

(Q) Outcome? C=C1CC(OC)(C(O)C(=O)N[C@H]2OCO[C@H]3C2O[C@H](C[C@@H](COC)OC)C(C)(C)C3OC)O[C@H](C)[C@@H]1C (stereo partly specified)
(A) active

(Q) // outcome(item) with item = O=C1SC(c2ccc(Cl)cc2)(c2ccc(Cl)cc2)c2ccccc21
(A) inactive

(Q) How did this test come out for N#Cc1cc([N+](=O)[O-])ccc1NC(=O)/C(=N/N)C(C(=O)c1ccc(Cl)c(Cl)c1)C1OC(=O)c2ccccc21 (stereo unspecified) ?
(A) inactive

(Q) What outcome does the record of this test show for N=C(N)N/N=C\c1ccc(C2CCNCC2)cc1 ?
(A) inactive

(Q) Please indicate how the test categorized COC1=C(OC)C(=O)C(Cc2c(C)nc3sc(C)cn23)=C(C)C1=O .
(A) inactive

(Q) Called result for CC(C(=O)N1c2ccccc2Sc2ccccc21)N1c2ccccc2Sc2ccccc21 (stereo unspecified)
(A) inactive

(Q) Each molecule tested received a call. Report the one for COc1ccc(N2C(=O)C3c4[nH]c5ccccc5c4C4c5ccccc5CC4C3C2=O)cc1 (stereo unspecified) .
(A) inactive

Continuing:
(Q) Given CC(=O)OC(C)(C)C1CCC(C)(C(O)COc2ccc(CCNC(=O)c3ccccc3)cc2)O1 (stereo unspecified) , state the outcome it received in this test.
(A) inactive

(Q) Test call for this molecule, please: COc1cc2c(/C=C3/C(=O)Nc4cc(C)c(O)cc43)c(Cl)[nH]c2cc1C
(A) inactive

(Q) Please indicate how the test categorized O=c1c2cc(Cl)ccc2[nH]c2cc(O)cc(O)c12 .
(A) inactive

(Q) Entry O=C(NNS(=O)(=O)c1ccccc1)c1csc(NC(=S)NC2CCCCC2)n1 : call = ?
(A) inactive

(Q) What classification did O=C(/C=C/c1ccc(Cl)cc1)c1ccccc(=O)c1O end up with in this test?
(A) inactive

(Q) Per the records of this test, what outcome belongs to O=C(COc1ccc(Cl)c(Cl)c1)Nc1ccc[n+](Cc2ccc(S(=O)(=O)F)c(Cl)c2)c1 ?
(A) inactive

(Q) Hi team, can someone confirm the assay call for CC(C(N)=O)N(C)C(=O)c1cc2ccccc2[n+](Cc2ccccc2)c1 (stereo unspecified) ?
(A) inactive

(Q) Please state the recorded outcome for this molecule: O=c1[nH]nc(Cc2ccccc2)n1C1CCCC1
(A) inactive

(Q) Which outcome did this test record for the molecule C=C(C)C(=O)O[C@H]1C[C@@]23O[C@@H]2CCC(=C[C@H]2OC(=O)C(=C)[C@H]12)COC3O (stereo partly specified) ?
(A) inactive

(Q) Dear colleague, could you share the recorded outcome for CN(C)CN1C(=O)S/C(=C2\C(=O)N(CN(C)C)c3ccccc32)C1=O when you have a moment?
(A) inactive

(Q) Identify the outcome logged in this assay for the molecule shown: Cc1cc2nc3n(c2cc1C)C(c1c(F)cccc1F)SC3 (stereo unspecified)
(A) inactive

(Q) What classification did COc1cccc(/C=N/[N+](C)(C)C)c1O end up with in this test?
(A) inactive

(Q) Which outcome was assigned to CC1(C)CCCCC1/C=C/C(CC(O)(C(F)(F)F)C(F)(F)F)=N\Nc1ccc([N+](=O)[O-])cc1[N+](=O)[O-] (stereo unspecified) in this test?
(A) active
